- experiment: Components of the Cytosolic LPS Sensing Pathway: Gene Identification via Genome-wide siRNA Screen;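 further: robust z of the log signal after scaling to non-targeting control siRNA wells of the plate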
- cond: RAW264.7 macrophages, IL-1a HTRF, actives lie on both sides, screened at 100 nM (by protocol), cells primed 5 h with Pam3CSK4 first
About 3,700 (7%) of roughly 53,000 sequences were called active. This is one part of a sample in which actives are shown more often than they occur.
Listed here are sequences together with their documented z-score.

// below: answered sequences
# macromolecule sequence, z-score
rows = [
    ("GCAGGAGAACUUUUUUAGUTT against Hus1", "-1.01 (inactive)"),
    ("GGCUGUUCUCUAGAUGAAUTT against 1810065E05Rik", "-1.54 (inactive)"),
    ("CGGUGGAAAUACCAGGAUGTT against Tshb", "0.406 (inactive)"),
    ("GGAACGUAAACUAAGCCCGTT against Foxb1", "0.458 (inactive)"),
    ("CCUCGAGUGGUUGGAUAAGTT against Vps25", "-2 (active)"),
]

Give the measured z-score of GGUACAGACCUUUGAAAUATT against Apobec2 .
-0.125 (inactive)

Requested read-out: z-score. Entry: GGGCCACAGCUUAAUACUGTT against Ptov1
3.28 (active)

Quick check: z-score of GGCAAAGAUGAUGGAAAAATT against Srp68 ?
0.307 (inactive)

# get_value(readout='z-score', item= GGAGAACAUAAAAAUGGUGTT against Stk39 )
-0.0786 (inactive)

Any idea what z-score was measured for GCCAUUCAAAAAUCAGCCGTT against Ddi2 ?
-2.02 (active)

Recorded z-score for GCUCUGUGGACUUCUUGGATT against Znrf4 , please?
-0.687 (inactive)

# input sequence: GGGAAGAGUGGUGCAAUGATT against Olfr155 ; wanted: its z-score
0.835 (inactive)

# get_value(readout='z-score', item= GGGACACGAUGAGGAGUCATT against Cfap410 )
-2.21 (active)

What value of measured z-score is listed for GCCCAGCUCAAAUCUCCAUTT against Defb41 ?
1.05 (inactive)

Requested read-out: z-score. Entry: GGAAAUUAAACAGAAACAGTT against Ube2j2
-0.471 (inactive)

Requested read-out: z-score. Entry: GGUUCAUCUGUACAAAAUCTT against Zfp110
0.708 (inactive)

Report z-score for GCAUUUUAAUGCGCCAGUUTT against Atp2c1 please.
-0.164 (inactive)

Looking for the measured z-score of CCUCGAACCAAGAUGUUCATT against Pdzrn3 , can you help?
0.851 (inactive)

Sample GGAGAUGUUGGACUUCAUGTT against Nxnl2 — what was its z-score?
-2.42 (active)

Returns the measured z-score for the input sequence. Input: GAUCUUCCUGACAGUGGUGTT against Psors1c2
-0.15 (inactive)

Requested read-out: z-score. Entry: GGACAGUUCUUACUUUACATT against Drd2
1.18 (inactive)

Name the reported z-score value associated with the sequence GGGUUGUUUGCUGGUUUGUTT against Tmbim4
0.885 (inactive)

---

- experiment: Components of the Cytosolic LPS Sensing Pathway: Gene Identification via Genome-wide siRNA Screen;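 further: robust z of the log signal after scaling to non-targeting control siRNA wells of the plate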
- cond: RAW264.7 macrophages, IL-1a HTRF, actives lie on both sides, screened at 100 nM (by protocol), cells primed 5 h with Pam3CSK4 first
- Procedure: Non-canonical inflammasome activation by cytosolic LPS is a critical component of the host response to Gram-negative bacterial infection, however we lack a comprehensive understanding of the cellular processes that control this pathway. […] Lipofectamine RNAiMAX Transfection Reagent ([…]; Invitrogen) was added in […] serum-free, antibiotic-free media to plate wells using a Thermo Scientific Matrix WellMate and Microplate Stacker. […] The plates were read on an EnVision plate reader (PerkinElmer). […]
In all, about 53,000 sequences went through this assay and about 3,700 (7%) were called active.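 The calls were made as follows: active = gene knockdowns whose robust z-score for IL-1 alpha signal is at least 2 or at most -2, so actives lie on both sides; inactive = the rest.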 This is one part of a sample in which actives are shown more often than they occur.
Can you answer with just one of these options? 1.0 (active), 0.0 (inactive)

# macromolecule sequence, cat
measured = [
    ("GCUAACUGCCUUGGGAAGATT against Lyl1", 1.0),
    ("GGAGGCUAUUACUGUUUAUTT against Fam107b", 0.0),
    ("GCCACAGAGCUAGACUGUCTT against Wdr86", 0.0),
    ("CCAGGAAUCAGUCUAUACUTT against Lrrc15", 0.0),
    ("GGGAGAUUGGAAACAAAAATT against Hsd3b4", 0.0),
]

Answer briefly: the call reported for GGUUCCCAAAGUAGAAGCATT against Dkkl1 in this assay.
0.0

I'd appreciate the recorded outcome for GGAUCAUAAAAAGAAUCACTT against Gpr21 from this test.
0.0

Write down the call the test reported for this sequence. Item: GACUCUAAACCUAGCAGCGTT against Basp1
1.0

What was the test verdict on CCUAGUCAUAUUCUACAGUTT against Iqca1l ?
0.0

Please share the test call associated with GGUUCCUACACGAAAGGAUTT against Eif2b4 .
0.0

Identify the outcome logged in this assay for the sequence shown: GCCUUCUGGCAAGAAUCUUTT against Krtap9-3
0.0

I would be grateful if you could indicate the recorded call for CGGCAAAUUCGUGAAAAGGTT against Olfr575 .
0.0
